Ref: the supplement of paper PMC10567573

Test Details: protein stability index of a GFP-peptide fusion (GPS, HEK-293T) (PSI 1-6); higher = more stable;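 also: 24-mer peptide tiles fused after GFP, lentivirally expressed, FACS-sorted into six equal bins by GFP/DsRed ratio, decoded by Illumina sequencing, PSI is the read-weighted mean bin number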
Stated Conditions: treatment: MLN4924 1 uM, 8 h; c terminus: a fixed tail appended
Measured Attribute: protein stability index
Give your answer as a number; write no unit.

INSERT INTO measurements (sequence, data_value) VALUES
  ('AVLASCSQYFRSLFSSHPPLGGGV [KLHL14]', 2.22);

Specify reported protein stability index for the sequence shown: RLFLDGEEEKEWAFEESKIDEHHF [AASDHPPT]
4.42

Specify reported protein stability index for the sequence shown: HLPWQYHAGQGGLFYSAEVEMLCD [CCDC3]
2.52

Specify reported protein stability index for the sequence shown: LGLPYYETSVFDQFGIKDVFDNAI [RHOBTB1]
2.45

Specify reported protein stability index for the sequence shown: RTVNALEIELQAQHNLRYSLENTL [KRT33B]
2.29

Specify reported protein stability index for the sequence shown: TEYQIVTDPGDVPAFLKWLSLASL [SLC2A12]
2.16

###

Test Details: protein stability index of a GFP-peptide fusion (GPS, HEK-293T) (PSI 1-6); higher = more stable
Stated Conditions: treatment: DMSO; c terminus: a fixed tail appended
Measured Attribute: protein stability index
Give your answer as a number; write no unit.

Some sequences with recorded protein stability index:
INSERT INTO assay_data (sequence, measured_attribute, data_value) VALUES
  ('VNFMYLQSLLQPKSSSVDSELTSL [SMG5]', 'protein stability index', 2.21),
  ('ARFGSGPCKTRDDEPVCGRPLGIR [APMAP]', 'protein stability index', 3.75),
  ('LGLPYYETSVFDQFGIKDVFDNAI [RHOBTB1]', 'protein stability index', 2.34),
  ('TIRGEVMFFKDRFYMRTNPFYPEV [MMP1]', 'protein stability index', 2.2);

Specify reported protein stability index for the sequence shown: HNRKVLTIFSASNYYEVGSNRGAY [PPEF2]
2.44

Specify reported protein stability index for the sequence shown: PERSDLTLYLIVALATVSLLSLVT [PCDHGC5]
2.02

Specify reported protein stability index for the sequence shown: LDEQNKRPCRKFLLTGQCDFGSNC [ZMAT5]
3.34

Specify reported protein stability index for the sequence shown: GDSGERSEGEAMEICSEPVAASPA [ZNF511]
5.47

Specify reported protein stability index for the sequence shown: RLKKQLRAAQLQHSEKMAQYLEEE [CCDC6]
4.06

Specify reported protein stability index for the sequence shown: PTTRNYPELNNNQYNRSSNSNGGN [CDC14A]
4.65

Specify reported protein stability index for the sequence shown: RNQGNFSVVGTVLAATQAEKAVAN [ZC2HC1C]
4.28

Specify reported protein stability index for the sequence shown: HPLAYGMVGPLAQDPQSPMAGLRW [POMT2]
2.85

Specify reported protein stability index for the sequence shown: RPELPPVCRARPRACSHLIRLMQR [RIPK4]
2.52

###

Test Details: protein stability index of a GFP-peptide fusion (GPS, HEK-293T) (PSI 1-6); higher = more stable
Stated Conditions: treatment: DMSO; c terminus: a fixed tail appended
Measured Attribute: protein stability index
Give your answer as a number; write no unit.

Some sequences with recorded protein stability index:
INSERT INTO results (sequence, data_value) VALUES
  ('VNAKDNMWLTPLHRAVASRSEEAV [ANKRD44]', 4.07),
  ('RGLRYYYDKNIIHKTAGKRYVYRF [ETS1]', 2.32),
  ('IRHNLSLNKCFIKVPREKDEPGKG [FOXJ1]', 3.78),
  ('EEGDEQQRLLNTPRRKKLKSTSKY [GMCL1]', 4.75),
  ('AGLCMDSPSPMDPHMAEQTFEQAI [CDC25B]', 4.5),
  ('ISSGVVSIWAQNQVENWSAFAPDF [RBBP5]', 2.44);

Next item in the queue.
Specify reported protein stability index for the sequence shown: NPFYHCLVAEILPAPGKLLGPCVV [SAT2]
3.16

###

Test Details: protein stability index of a GFP-peptide fusion (GPS, HEK-293T) (PSI 1-6); higher = more stable
Stated Conditions: treatment: MLN4924 1 uM, 8 h; c terminus: native
Measured Attribute: protein stability index

INSERT INTO measurements (sequence, data_value) VALUES
  ('HMAKERAHSTASHSSSNSEDTEM [PDZK1]', 5.39),
  ('EEVVYDLSIRGFNKETAAACVEK [TSN]', 4.38),
  ('ADWWQEPDAKGDEAEAEPEPELA [P3H4]', 5.42),
  ('SPCLPEAEAMFAINADGVGDAKD [RAD51]', 5.34),
  ('REVDLNGDGTVDFDEFVMMLSRH [CABP4]', 4.23);

Specify reported protein stability index for the sequence shown: CLRILMGELSNHHDHHDEFCLMP [BEX3]
2.27

Specify reported protein stability index for the sequence shown: FRQYCGAACTCHVRNPLSACSIM [RNF208]
2.18

###

Test Details: protein stability index of a GFP-peptide fusion (GPS, HEK-293T) (PSI 1-6); higher = more stable
Stated Conditions: treatment: DMSO; c terminus: a fixed tail appended
# Lookup of reported protein stability index keyed by entry
Give your answer as a number; write no unit.

Some sequences with recorded protein stability index:
INSERT INTO assay_data (sequence, data_value) VALUES
  ('KGGEERKAEGGEEDSLGCLTADTK [IRX6]', 5.44),
  ('ESSLGSESEEEEEFYDADEETQMI [SLC22A15]', 5.05),
  ('HSLERAGSKQYSAAIAFTLALFSH [SMG5]', 2.48),
  ('LTEASAHSHPPEIKDQGGAGEGLV [MAP2]', 5.57),
  ('SGSGKSGGYGFGRGRASGFAGSMF [KRT71]', 2.8);

Specify reported protein stability index for the sequence shown: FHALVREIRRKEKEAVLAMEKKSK [RIT1]
2.52

Specify reported protein stability index for the sequence shown: RVWLKRDSGQYWPSIYHTMASPCS [WDFY1]
2.06

Specify reported protein stability index for the sequence shown: PSSQSSSGGGRDSSSSILRWLPEK [ELOA2]
4.15

Specify reported protein stability index for the sequence shown: ISRAQYNALTLTFQRAMHDYNQAE [STX11]
2.21

Specify reported protein stability index for the sequence shown: ETVTVTVGPAEPTLVNFHLKRSIP [CPN1]
3.02

Specify reported protein stability index for the sequence shown: LYILGNFMQLKCFSSQKLKCLSMF [PNLIPRP1]
3.67

Specify reported protein stability index for the sequence shown: SSFFQQFFHCYCPVGFGRRTDPNG [CRY1]
2.42

Specify reported protein stability index for the sequence shown: PTPSSPLPSVPVSVPASDPRSCSS [PLEKHN1]
5.15

Specify reported protein stability index for the sequence shown: VVTRVVTGVYPRCLHASQWPVCAA [BRF1]
2.54

Specify reported protein stability index for the sequence shown: LKVAAESCKADVVELLLSHADCDR [FEM1B]
3.16

Specify reported protein stability index for the sequence shown: ARLVFVPLLLLCNIKPRRYLTVVF [SLC29A1]
2.92

###

Test Details: protein stability index of a GFP-peptide fusion (GPS, HEK-293T) (PSI 1-6); higher = more stable
Stated Conditions: treatment: DMSO; c terminus: native
If the reported protein stability index equals or exceeds 3, assign MET. If not, assign NOT MET.

INSERT INTO measurements (sequence, discrete_label) VALUES
  ('TQSNRTSRLIGKKMNRSVSLTIY [WEE1]', 'NOT MET'),
  ('SPCLPEAEAMFAINADGVGDAKD [RAD51]', 'MET'),
  ('REVDLNGDGTVDFDEFVMMLSRH [CABP4]', 'MET'),
  ('HEVLLCSDLVKAYQRCVSAAHKG [CHCHD6]', 'NOT MET'),
  ('DIALNKHRSRRKWCFWNSSPAVA [RHOBTB1]', 'NOT MET');

Is protein stability index at least 3? Consider FRQYCGAACTCHVRNPLSACSIM [RNF208]
NOT MET

Is protein stability index at least 3? Consider YWEAWRHHCQGKDLTEWVDGCDF [SPACA3]
NOT MET

###

Test Details: protein stability index of a GFP-peptide fusion (GPS, HEK-293T) (PSI 1-6); higher = more stable
Stated Conditions: treatment: DMSO; c terminus: a fixed tail appended
Measured Attribute: protein stability index
Give your answer as a number; write no unit.

Some sequences with recorded protein stability index:
INSERT INTO measurements (sequence, data_value) VALUES
  ('SCYKGHREIARYLLEQGAQVNRRS [FEM1A]', 2.93),
  ('DFPEEDDPTNWLRCYYYEDTISTI [NCF4]', 3.28),
  ('TDRPLLSTLEESVVRICCIRSFGH [SMG5]', 2.36),
  ('LAATQAEKAVANFDRTEWVQIRRL [ZC2HC1C]', 3.45),
  ('DMEKILEIIRVILKLYEQWKNFDE [CCNC]', 2.47),
  ('EARKYASNLLKAGFIRHTVNKITF [DVL3]', 2.31);

Specify reported protein stability index for the sequence shown: NLFFAWIKIFKYISFNKTMTQLSS [PKD2L1]
3.05

Specify reported protein stability index for the sequence shown: VRVCDLLLKKKPPQQQHHKAKRNR [ANKRD17]
3.33

Specify reported protein stability index for the sequence shown: CPQCGKCFARKSQLTGHQRIHSGE [ZNF449]
5.1

Specify reported protein stability index for the sequence shown: DTDRDGYISHRELGDCMRTLGYMP [CABP4]
3.41

Specify reported protein stability index for the sequence shown: LLLNNANPNLSNRRGSTPLHMAVE [RIPK4]
2.41

Specify reported protein stability index for the sequence shown: GGLQHRVTAKTAPDVLRTKPAFIG [PTPRD]
3.44
